Values from patent US5334757A

Listed below: pIC50 values for each entry.
- System: monosynaptic reflex in the newborn rat spinal cord preparation
- EXPERIMENT NOTES: Determination of monosynaptic reflex inhibition activity in the newborn rat spinal cord preparation
- Set-up: species or system newborn Wister rat
- MEASUREMENT CONTEXT: newborn rat spinal cord preparation; read-out: IC50 (50% inhibitory concentration), monosynaptic reflex inhibition
For clarity, pIC50 is expressed as the negative log10 of concentration in mol/L.

| COMPOUND | pIC50 |
| --- | --- |
| N[C@H](C(=O)O)C1[C@@H](C(=O)O)[C@@H]1C(=O)O (some centres unmarked) | 7.22 |

Shift focus to the following entry.
Consider the compound N[C@H](C(=O)O)C1[C@H](C(=O)O)[C@H]1C(=O)O (some centres unmarked) and give its measured pIC50. 6.00
